- Tested on: c-Src;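 further: 11-residue human phosphosite peptides and single-mutation variants displayed on the E. coli surface, counted by deep sequencing, each peptide's frequency after selection divided by its frequency in the unselected input library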;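 further: frequency after pTyr selection over input frequency; kinase dosed for 20-30% of maximal phosphorylation in three min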
- assay.notes: phosphorylation enrichment, bacterial display (enrichment ratio); higher = better substrate or ligand; peptides without Tyr show the background
Use 0.5 as the dividing line for phosphorylation enrichment, with the line itself on the Yes side and lower values as No.

Study these solved cases before continuing.
{"sequence.input": "YENGEYIVRQG [PRKG1_Y247_I249V]", "group.label": "No"}
{"sequence.input": "PLAVPYLDKPP [JMJD7_Y31]", "group.label": "Yes"}
{"sequence.input": "HDRNTYEKYLG [TF_Y666]", "group.label": "Yes"}

Is it the case that TRVMEYISCLD [CLTCL1_Y1043_R1046C] has phosphorylation enrichment reaching or exceeding 0.5?
No

Is it the case that PVFIKYLPEWT [PSEN1_Y240_L235P] has phosphorylation enrichment reaching or exceeding 0.5?
Yes

Is it the case that RLCQDYDIIGP [ANK1_Y1073_T1075I] has phosphorylation enrichment reaching or exceeding 0.5?
Yes

Is it the case that TFGQVYKGRHV [TNIK_Y40_YF] has phosphorylation enrichment reaching or exceeding 0.5?
No
